Tested on: HCC827 cells (EGFR Exon19 del, non-small cell lung cancer cells)
experimentalDetails: Cell viability assay (WST/CCK8), HCC827 cells
Format: cell-based
measurementParameters: Homo sapiens, HCC827, 72 h, Table 3, poziotinib-based compounds; HCC827 (Exon19 Del); 72 hours; WST (CCK8); read-out: IC50 (half inhibitory concentration)
Source text: The cell lines with abnormal EGFR expression used are as follows: • HCC827 cells (EGFR Exon19 del, non-small cell lung cancer cells); • PC9 cells (EGFR Exon 19 del, non-small cell lung cancer cells); • PC9BracA1 (EGFR Exon 19 del+T790M, non-small cell lung cancer cells) • H1975 (EGFR Exon T790M+L858R mutation, non-small cell lung cancer cell line) • BT474 cells (HER2 positive breast cancer cells) […]
measuredParameter: IC50 (nM)

COc1cc2ncnc(Nc3ccc(Cl)c(Cl)c3F)c2cc1OC1CCN(C(=O)CCOCCOCCOCCOCCNc2cccc3c2C(=O)N(C2CCC(=O)NC2=O)C3=O)CC1 (stereo not drawn) [SIAIS249032]    11
COc1cc2ncnc(Nc3ccc(Cl)c(Cl)c3F)c2cc1OC1CCN(C(=O)CCCCSc2cccc3c2CN(C2CCC(=O)NC2=O)C3=O)CC1 (stereo not drawn) [SIAIS219167]    31

P = COc1cc2ncnc(Nc3ccc(Cl)c(Cl)c3F)c2cc1OC1CCN(C(=O)CCOCCNc2cccc3c2C(=O)N(C2CCC(=O)NC2=O)C3=O)CC1 (stereo not drawn) [SIAIS249029]
Q = COc1cc2ncnc(Nc3ccc(Cl)c(Cl)c3F)c2cc1OC1CCN(C(=O)COCCOCC(=O)N[C@H](C(=O)N2C[C@H](O)C[C@H]2C(=O)NCc2ccc(-c3scnc3C)cc2)C(C)(C)C)CC1 [SIAIS249024]
R = COc1cc2ncnc(Nc3ccc(Cl)c(Cl)c3F)c2cc1OC1CCN(C(=O)CCCCCSc2cccc3c2C(=O)N(C2CCC(=O)NC2=O)C3=O)CC1 (stereo not drawn) [SIAIS249018]
S = COc1cc2ncnc(Nc3ccc(Cl)c(Cl)c3F)c2cc1OC1CCN(C(=O)CCCCSc2cccc3c2C(=O)N(C2CCC(=O)NC2=O)C3=O)CC1 (stereo not drawn) [SIAIS249017]
Exercise: Rank items: key IC50, increasing. Sort and list the labels as requested.
Solution: R, S, P, Q
(R: 13.3 nM, S: 23 nM, P: 80 nM, Q: 174 nM)

###

System: HCC827 cells (EGFR Exon19 del, non-small cell lung cancer cells)
experimentalDetails: Cell viability assay (WST/CCK8), HCC827 cells
Format: cell-based
measurementParameters: Homo sapiens, HCC827, 72 h, Table 3, poziotinib-based compounds; HCC827 (Exon19 Del); 72 hours; WST (CCK8); read-out: IC50 (half inhibitory concentration)
measuredParameter: IC50 (nM)

Answered cases to consult:
COc1cc2ncnc(Nc3ccc(Cl)c(Cl)c3F)c2cc1OC1CCN(C(=O)CCCSc2cccc3c2C(=O)N(C2CCC(=O)NC2=O)C3=O)CC1 (stereo not drawn)    29
COc1cc2ncnc(Nc3ccc(Cl)c(Cl)c3F)c2cc1OC1CCN(C(=O)CCCCCNc2cccc3c2C(=O)N(C2CCC(=O)NC2=O)C3=O)CC1 (stereo not drawn)    23.1
COc1cc2ncnc(Nc3ccc(Cl)c(Cl)c3F)c2cc1OC1CCN(C(=O)CSc2cccc3c2CN(C2CCC(=O)NC2=O)C3=O)CC1 (stereo not drawn)    33

1 = COc1cc2ncnc(Nc3ccc(Cl)c(Cl)c3F)c2cc1OC1CCN(C(=O)CCCCCSc2cccc3c2CN(C2CCC(=O)NC2=O)C3=O)CC1 (stereo not drawn)
2 = COc1cc2ncnc(Nc3ccc(Cl)c(Cl)c3F)c2cc1OC1CCN(C(=O)CCCCNc2cccc3c2C(=O)N(C2CCC(=O)NC2=O)C3=O)CC1 (stereo not drawn)
3 = COc1cc2ncnc(Nc3ccc(Cl)c(Cl)c3F)c2cc1OC1CCN(C(=O)CCCCC(=O)N[C@H](C(=O)N2C[C@H](O)C[C@H]2C(=O)NCc2ccc(-c3scnc3C)cc2)C(C)(C)C)CC1
Exercise: Rank descending by IC50. Give the order by naming the labels one after another as requested.
Solution: 3, 1, 2
(3: 75.4 nM, 1: 40 nM, 2: 26.7 nM)
